# Tested on: FXR:RXRa (NR concentration 270 nM, RXRa partner concentration 90 nM)
# TEST DETAILS: PBM binding z-score (relative to random genomic background probes); higher = stronger binding; sequences stand for … in GC…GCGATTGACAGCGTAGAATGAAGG
READOUT KIND: PBM binding z-score
A bare number is all that is needed in reply.

// below: answered sequences
>  <CONSTRUCT SEQUENCE>
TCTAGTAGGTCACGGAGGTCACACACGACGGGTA

>  <PBM binding z-score>
7.27

$$$$
>  <CONSTRUCT SEQUENCE>
CGAGCTAGGTCACCAGGACAGTGAAGAGGTTGGA

>  <PBM binding z-score>
3.66

$$$$
>  <CONSTRUCT SEQUENCE>
AGTCAAAGTTCAGTAGGTAACGTAAGATTCAGCT

>  <PBM binding z-score>
2.64

$$$$
>  <CONSTRUCT SEQUENCE>
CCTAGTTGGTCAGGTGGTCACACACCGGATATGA

>  <PBM binding z-score>
0.558

$$$$
>  <CONSTRUCT SEQUENCE>
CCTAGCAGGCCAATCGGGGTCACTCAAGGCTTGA

>  <PBM binding z-score>
4.42

$$$$
>  <CONSTRUCT SEQUENCE>
ATATATAGGTTAGGGTCATTCAGAAAGTAGGGAA

>  <PBM binding z-score>
5.26

$$$$
>  <CONSTRUCT SEQUENCE>
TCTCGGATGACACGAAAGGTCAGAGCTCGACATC

>  <PBM binding z-score>
2.84

$$$$
>  <CONSTRUCT SEQUENCE>
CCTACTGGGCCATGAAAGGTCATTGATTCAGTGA

>  <PBM binding z-score>
3.25

$$$$
>  <CONSTRUCT SEQUENCE>
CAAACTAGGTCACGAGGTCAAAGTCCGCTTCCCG

>  <PBM binding z-score>
7.24

$$$$
>  <CONSTRUCT SEQUENCE>
CTCGAAAGGTCGTGCTCAGGTGAGTACACCAAAC

>  <PBM binding z-score>
5.63

$$$$

Lab book: PBM binding z-score of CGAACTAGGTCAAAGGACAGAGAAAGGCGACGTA noted as 4.22

# PBM binding z-score (sequence: CGAACTAGGTCACCAGGACATTGAAGAGGTTGGA ) is 4.15

###

# System: THRa homodimer (NR concentration 90 nM)
# TEST DETAILS: PBM binding z-score (relative to random genomic background probes); higher = stronger binding; sequences stand for … in GC…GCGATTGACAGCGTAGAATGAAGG
READOUT KIND: PBM binding z-score
// return just the number, without any unit appended

Examples from the recorded data:
>  <CONSTRUCT SEQUENCE>
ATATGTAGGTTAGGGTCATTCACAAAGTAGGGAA

>  <PBM binding z-score>
2.96

$$$$
>  <CONSTRUCT SEQUENCE>
CCTAGTTGGTCAAGGTCTCACACGCTATAGGTAC

>  <PBM binding z-score>
1.03

$$$$
>  <CONSTRUCT SEQUENCE>
ATCTAAAGGTCGAAGGTGAGTATACCCACCCGAA

>  <PBM binding z-score>
0.159

$$$$
>  <CONSTRUCT SEQUENCE>
CGTCCAAGGTCAAGGGCAGTGAAAGAGACTCGAA

>  <PBM binding z-score>
2.22

$$$$
>  <CONSTRUCT SEQUENCE>
TGAATGAGGTGAAAGATCAGGGAACGTGGCGTCG

>  <PBM binding z-score>
0.878

$$$$

Reported PBM binding z-score for AACGAAAGGTCGACGAGGTGAGTATACACCGTTT was 0.519

Consider AGCGAAAGGTCGAAGGTGAGTATACCCACCCGAA . Its measured PBM binding z-score is -0.329

response.value for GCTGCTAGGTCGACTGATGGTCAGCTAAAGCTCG (field: PBM binding z-score) = -0.82
